Origin of the recorded values: ChEMBL document CHEMBL4043214

Tested on: Candida albicans
Assay: Potentiation of fluconazole-induced anti-fungal activity against fluconazole-resistant Candida albicans isolate 100 by two-fold dilution method
Format: functional
Listed compounds paired with reported fractional inhibitory concentration index (FICI)
Respond numerically, and do not add a unit to the figure.

Worked set:
>>> df
                                smiles_data  data_value
0  Cc1ccc(-c2ccccc2CNC(=O)CCc2ccc3c(c2)OCO3)cc1       0.064
1  O=C(CCc1ccc2c(c1)OCO2)NCc1ccc(-c2ccncc2)cc1       0.125
2         O=C(CCc1ccc2c(c1)OCO2)NCc1ccccc1F       0.066

stdin: Name the recorded fractional inhibitory concentration index (FICI) for O=C(CCc1ccc2c(c1)OCO2)NCc1ccc(-c2cccc(F)c2)cc1 .
stdout: 0.064

stdin: For Cc1ccc(-c2ccc(CNC(=O)CCc3ccc4c(c3)OCO4)cc2)cc1 then?
stdout: 0.063

stdin: For O=C(CCc1ccc2c(c1)OCO2)NCc1cccc(F)c1 then?
stdout: 0.07

stdin: For O=C(CCc1ccc2c(c1)OCO2)NCc1ccccc1Br then?
stdout: 0.07

stdin: For Cc1ccc(-c2cccc(CNC(=O)CCc3ccc4c(c3)OCO4)c2)cc1 then?
stdout: 0.07

stdin: For O=C(CCc1ccc2c(c1)OCO2)NCc1ccc(-c2ccsc2)cc1 then?
stdout: 0.064

stdin: For Cc1cccc(-c2ccc(CNC(=O)CCc3ccc4c(c3)OCO4)cc2)c1 then?
stdout: 0.066

stdin: For O=C(CCc1ccc2c(c1)OCO2)NCc1ccc(-c2ccco2)cc1 then?
stdout: 0.078
